The origin of these recorded values is patent US20100061982A1.

testTarget: PI3K alpha (Homo sapiens, UniProt P42336)
Sequence (P42336 whole entry, species assumed): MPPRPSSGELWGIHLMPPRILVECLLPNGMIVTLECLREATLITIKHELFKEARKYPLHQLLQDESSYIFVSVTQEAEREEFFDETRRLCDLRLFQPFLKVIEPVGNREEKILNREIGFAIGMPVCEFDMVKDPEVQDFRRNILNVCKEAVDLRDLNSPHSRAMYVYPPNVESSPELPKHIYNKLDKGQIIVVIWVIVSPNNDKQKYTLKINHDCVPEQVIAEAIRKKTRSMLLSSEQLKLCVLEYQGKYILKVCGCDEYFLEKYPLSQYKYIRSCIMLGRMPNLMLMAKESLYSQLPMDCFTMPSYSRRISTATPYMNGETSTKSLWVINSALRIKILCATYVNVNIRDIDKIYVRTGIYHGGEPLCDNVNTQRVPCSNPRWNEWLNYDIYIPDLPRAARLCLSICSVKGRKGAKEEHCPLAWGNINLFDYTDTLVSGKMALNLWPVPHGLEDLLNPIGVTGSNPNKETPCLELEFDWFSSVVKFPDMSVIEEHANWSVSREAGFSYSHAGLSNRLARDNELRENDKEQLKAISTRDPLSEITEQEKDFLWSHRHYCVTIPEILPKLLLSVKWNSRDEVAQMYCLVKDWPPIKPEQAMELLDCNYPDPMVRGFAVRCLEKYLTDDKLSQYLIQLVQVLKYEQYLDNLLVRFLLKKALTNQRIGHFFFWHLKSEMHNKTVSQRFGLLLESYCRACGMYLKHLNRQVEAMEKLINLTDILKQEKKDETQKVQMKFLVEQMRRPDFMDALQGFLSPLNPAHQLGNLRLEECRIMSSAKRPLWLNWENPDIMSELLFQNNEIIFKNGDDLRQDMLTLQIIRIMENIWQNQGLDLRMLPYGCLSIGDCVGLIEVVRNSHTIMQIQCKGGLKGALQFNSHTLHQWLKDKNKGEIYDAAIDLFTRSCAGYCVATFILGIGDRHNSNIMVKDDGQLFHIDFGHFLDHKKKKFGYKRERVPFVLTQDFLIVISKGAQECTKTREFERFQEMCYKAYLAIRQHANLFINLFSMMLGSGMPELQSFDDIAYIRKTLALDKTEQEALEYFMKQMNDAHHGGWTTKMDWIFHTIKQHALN
Sequence (P27986 whole entry partner, species assumed): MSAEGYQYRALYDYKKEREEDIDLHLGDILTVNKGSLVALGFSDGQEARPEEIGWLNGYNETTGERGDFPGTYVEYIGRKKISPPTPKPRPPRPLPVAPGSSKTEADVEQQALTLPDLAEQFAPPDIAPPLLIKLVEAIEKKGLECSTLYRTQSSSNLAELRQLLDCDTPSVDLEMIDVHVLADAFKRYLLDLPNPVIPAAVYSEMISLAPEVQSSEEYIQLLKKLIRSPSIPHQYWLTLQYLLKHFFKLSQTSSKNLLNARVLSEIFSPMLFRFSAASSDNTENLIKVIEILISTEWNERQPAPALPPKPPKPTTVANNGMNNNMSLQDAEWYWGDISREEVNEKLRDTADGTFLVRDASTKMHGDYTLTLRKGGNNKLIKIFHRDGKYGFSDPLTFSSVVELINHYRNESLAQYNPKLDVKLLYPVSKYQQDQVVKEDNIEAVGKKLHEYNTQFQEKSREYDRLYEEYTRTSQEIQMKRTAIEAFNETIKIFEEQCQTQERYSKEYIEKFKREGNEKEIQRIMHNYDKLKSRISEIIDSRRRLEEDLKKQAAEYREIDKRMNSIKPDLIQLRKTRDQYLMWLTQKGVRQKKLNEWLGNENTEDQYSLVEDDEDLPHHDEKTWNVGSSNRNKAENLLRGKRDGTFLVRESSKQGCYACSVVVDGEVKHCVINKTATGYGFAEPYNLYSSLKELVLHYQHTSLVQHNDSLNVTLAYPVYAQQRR
experimentalProtocol: PI3K-alpha Fluorescence Polarization Assay
Type: biochemical
conditionsUsed: read-out: PI3K alpha Mean IC50
Reported values of pIC50 for individual entries
Lab note — pIC50 values are minus log10 of concentrations in M.

COc1ccc2[nH]c(-c3ccccc3)c(/C=C3\Oc4cc(OC(=O)N(C(C)C)C(C)C)cc(OC(=O)N(C(C)C)C(C)C)c4C3=O)c2c1 [Example 31] ... 6.57
COc1ccc2[nH]c(-c3ccccc3)c(/C=C3\Oc4cc(OC(=O)OC(C)C)cc(OC(=O)OC(C)C)c4C3=O)c2c1 [Example 7] ... 6.05
COc1ccc2[nH]c(-c3ccccc3)c(/C=C3\Oc4cc(OC(=O)c5ccccc5)cc(OC(=O)c5ccccc5)c4C3=O)c2c1 [Example 6] ... 6.33
COc1ccc2[nH]c(-c3ccccc3)c(/C=C3\Oc4cc(O)ccc4C3=O)c2c1 ... 8.89

Now for the compound whose pIC50 we want.
[ask] Return pIC50 for the following compound: COc1ccc2[nH]c(-c3ccccc3)c(/C=C3\Oc4cc(OP(=O)(O)O)cc(OP(=O)(O)O)c4C3=O)c2c1 [Example 38]
[reply] 6.05

* * *

experimentalProtocol: Buffer Stability (37° C.)
conditionsUsed: pH 6.6
Entries and their measured Buffer Stability (37° C.) % Remaining (at 16-23 hours) pH 6.6 follow.
# output: bare number, implied unit %

[ask] Supply Buffer Stability (37° C.) % Remaining (at 16-23 hours) pH 6.6 value. Item: COc1ccc2c(c1)c(/C=C1\Oc3cc(OC(=O)OC(C)C)cc(OC(=O)OC(C)C)c3C1=O)cn2CCCN(C)C [Example 5]
[reply] 63

[ask] // Input: COc1ccc2c(c1)c(/C=C1\Oc3cc(OC(=O)CC(C)C)cc(OC(=O)CC(C)C)c3C1=O)cn2CCCN(C)C [Example 9] . Output its Buffer Stability (37° C.) % Remaining (at 16-23 hours) pH 6.6 only.
[reply] 46

[ask] Please supply the value of reported Buffer Stability (37° C.) % Remaining (at 16-23 hours) pH 6.6 for the item CN(C)C(=O)Oc1cc(OC(=O)N(C)C)c2c(c1)O/C(=C\c1cn(C)c3cccc(-c4ccccc4)c13)C2=O [Example 48]
[reply] 100

[ask] Consider the compound COc1ccc2[nH]c(-c3ccccc3)c(/C=C3\Oc4cc(OC(=O)OC(C)C)cc(OC(=O)OC(C)C)c4C3=O)c2c1 [Example 7] and give its recorded Buffer Stability (37° C.) % Remaining (at 16-23 hours) pH 6.6.
[reply] 59

[ask] Hello, please tell me recorded Buffer Stability (37° C.) % Remaining (at 16-23 hours) pH 6.6 for this one: COc1ccc2c(c1)c(/C=C1\Oc3cc(OC(=O)N(c4ccccc4)c4ccccc4)cc(OC(=O)N(c4ccccc4)c4ccccc4)c3C1=O)cn2CCCN(C)C [Example 21]
[reply] 91

[ask] Supply Buffer Stability (37° C.) % Remaining (at 16-23 hours) pH 6.6 value. Item: COc1ccc2[nH]c(-c3ccccc3)c(/C=C3\Oc4cc(OC(=O)c5ccccc5)ccc4C3=O)c2c1 [Example 17]
[reply] 95

[ask] Fill in Buffer Stability (37° C.) % Remaining (at 16-23 hours) pH 6.6 for record COc1ccc2[nH]c(-c3ccccc3)c(/C=C3\Oc4cc(OC(=O)N(C)C)ccc4C3=O)c2c1 [Example 18]
[reply] 100

* * *

Each entry below carries its recorded log10 of half-life.
experimentalProtocol: Microsome Stability (15 min), nude mouse
Type: in vitro ADME
conditionsUsed: nude, mouse, microsomes, Phase I (NADPH), read-out: Microsome Stability (15 min) T ½ Phase I nude mouse
Recorded half-life (log10, min)

Before answering, review these 3 worked examples.
COc1ccc2[nH]c(-c3ccccc3)c(C=C3Oc4cc(O)cc(O)c4C3=O)c2c1 ... 1.46
COc1ccc2c(c1)c(/C=C1\Oc3cc(OC(=O)OC(C)C)cc(OC(=O)OC(C)C)c3C1=O)cn2CCCN(C)C ... 0.48
Cn1cc(/C=C2\Oc3cc(O)cc(O)c3C2=O)c2c(-c3ccccc3)ccnc21 ... 1.48

[ask] Answer with the recorded log10 of half-life for the molecule listed here: "COc1ccc2[nH]c(-c3ccccc3)c(/C=C3\Oc4cc(OC(C)=O)cc(OC(C)=O)c4C3=O)c2c1"
[reply] 0.95

[ask] Quickly give me recorded log10 of half-life for "COc1ccc2c(c1)c(/C=C1\Oc3cc(O)cc(O)c3C1=O)cn2CCCN(C)C"
[reply] 1.18

[ask] Indicate the recorded log10 of half-life value for this molecule: "Cn1cc(/C=C2\Oc3cccc(O)c3C2=O)c2c(N3CC4CCC(C3)O4)ccnc21"
[reply] 1.11

[ask] Dear colleague, please send me the reported log10 of half-life for "COc1ccc2c(c1)c(/C=C1\Oc3cc(O)ccc3C1=O)c(C)n2CCN1CCN(C)CC1" when you can.
[reply] 1.41

[ask] Output measured log10 of half-life for this item: "COc1ccc2c(c1)c(/C=C1\Oc3cc(OC(=O)C(C)(C)C)cc(OC(=O)C(C)(C)C)c3C1=O)cn2CCCN(C)C"
[reply] 0.30

* * *

experimentalProtocol: Microsome Stability (15 min), rat
Assay type: in vitro ADME
conditionsUsed: microsomes, Phase I (NADPH), read-out: Microsome Stability (15 min) T ½ Phase I rat
Mark y only when half-life stays strictly below 5 min. Values equal to the cut-off are n.

COc1ccc2c(c1)c(/C=C1\Oc3cc(OC(=O)N(C)C)cc(OC(=O)N(C)C)c3C1=O)c(C)n2CCN1CCN(C)CC1 ... n

[ask] I'd appreciate it if you could check whether "COc1ccc2c(c1)c(/C=C1\Oc3cc(O)cc(O)c3C1=O)c(C)n2CCN1CCN(C)CC1" has half-life smaller than 5 min.
[reply] n

[ask] Confirm or reject: half-life of "COc1ccc2[nH]c(-c3ccccc3)c(/C=C3\Oc4cc(OC(=O)OC(C)C)cc(OC(=O)OC(C)C)c4C3=O)c2c1" lies strictly below 5 min
[reply] y

[ask] Say whether its half-life is strictly beneath 5 min. Entry: "COc1ccc2[nH]c(-c3ccccc3)c(/C=C3\Oc4cc(OC(=O)N(C(C)C)C(C)C)cc(OC(=O)N(C(C)C)C(C)C)c4C3=O)c2c1"
[reply] n

[ask] Is the reported half-life for "COc1ccc2c(c1)c(/C=C1\Oc3cc(OC(=O)N(C)c4ccccc4)cc(OC(=O)N(C)c4ccccc4)c3C1=O)cn2CCCN(C)C" strictly below 5 min?
[reply] n

[ask] Please determine if "COc1ccc2[nH]c(-c3ccccc3)c(/C=C3\Oc4cc(OC(=O)N(c5ccccc5)c5ccccc5)ccc4C3=O)c2c1" is below 5 min in terms of half-life.
[reply] n

* * *

experimentalProtocol: Buffer Stability (37° C.)
conditionsUsed: pH 7.4
Measured Buffer Stability (37° C.) % Remaining (at 16-23 hours) pH 7.4 of individual entries
Answer with a number only, understood to be in %.

Field: example entries. Status: answers known.
COc1ccc2[nH]c(-c3ccccc3)c(/C=C3\Oc4cc(OC(C)=O)cc(OC(C)=O)c4C3=O)c2c1 ... 0
COc1ccc2c(c1)c(/C=C1\Oc3cc(OC(=O)c4ccccc4)cc(OC(=O)c4ccccc4)c3C1=O)cn2CCCN(C)C ... 5
COc1ccc2[nH]c(-c3ccccc3)c(/C=C3\Oc4cc(OC(=O)C(C)(C)C)cc(OC(=O)C(C)(C)C)c4C3=O)c2c1 ... 44

[ask] Specify measured Buffer Stability (37° C.) % Remaining (at 16-23 hours) pH 7.4 for "COc1ccc2[nH]c(-c3ccccc3)c(/C=C3\Oc4cc(OC(=O)N(c5ccccc5)c5ccccc5)cc(OC(=O)N(c5ccccc5)c5ccccc5)c4C3=O)c2c1" .
[reply] 100

[ask] Note down Buffer Stability (37° C.) % Remaining (at 16-23 hours) pH 7.4 recorded for "COc1ccc2c(c1)c(/C=C1\Oc3cc(OC(=O)N(C)c4ccccc4)ccc3C1=O)c(C)n2CCN1CCN(C)CC1"
[reply] 97

[ask] Identify the reported Buffer Stability (37° C.) % Remaining (at 16-23 hours) pH 7.4 for the following entry. "COc1ccc2c(c1)c(/C=C1\Oc3cc(OC(=O)CC(C)C)cc(OC(=O)CC(C)C)c3C1=O)cn2CCCN(C)C"
[reply] 0

[ask] Report Buffer Stability (37° C.) % Remaining (at 16-23 hours) pH 7.4 for "COc1ccc2c(c1)c(/C=C1\Oc3cc(OC(=O)N(c4ccccc4)c4ccccc4)cc(OC(=O)N(c4ccccc4)c4ccccc4)c3C1=O)cn2CCCN(C)C"
[reply] 98

[ask] Recall and state the measured Buffer Stability (37° C.) % Remaining (at 16-23 hours) pH 7.4 for "COc1ccc2[nH]c(-c3ccccc3)c(/C=C3\Oc4cc(OC(=O)c5ccccc5)ccc4C3=O)c2c1" .
[reply] 32

* * *

Below: a set of entries, each annotated with reported plasma prodrug concentration.
experimentalProtocol: In vivo blood/plasma and tumor levels of prodrug and metabolites after 50 mg, kg po
conditionsUsed: 50 mg, 2 h

Consider the following illustrative entries.
COc1ccc2c(c1)c(/C=C1\Oc3cc(OC(=O)N(C)c4ccccc4)cc(OC(=O)N(C)c4ccccc4)c3C1=O)cn2CCCN(C)C ... 757 ng, ml
COc1ccc2c(c1)c(/C=C1\Oc3cc(OC(=O)N(C(C)C)C(C)C)cc(OC(=O)N(C(C)C)C(C)C)c3C1=O)cn2CCCN(C)C ... 435 ng, ml
COc1ccc2[nH]c(-c3ccccc3)c(/C=C3\Oc4cc(OC(=O)N(C)C)cc(OC(=O)N(C)C)c4C3=O)c2c1 ... 65 ng, ml
COc1ccc2c(c1)c(/C=C1\Oc3cc(OC(=O)N(C)C)cc(OC(=O)N(C)C)c3C1=O)c(C)n2CCN1CCN(C)CC1 ... 3871, ng, ml
COc1ccc2c(c1)c(/C=C1\Oc3cc(OC(=O)N(C)C)cc(OC(=O)N(C)C)c3C1=O)cn2CCCN(C)C ... 3876, ng, ml
COc1ccc2c(c1)c(/C=C1\Oc3cc(OC(=O)N(C(C)C)C(C)C)cc(OC(=O)N(C(C)C)C(C)C)c3C1=O)c(C)n2CCN1CCN(C)CC1 ... 940, ng, ml

[ask] Please supply the value of reported plasma prodrug concentration for the item "CCOP(=O)(OCC)Oc1ccc2c(c1)O/C(=C\c1c(-c3ccccc3)[nH]c3ccc(OC)cc13)C2=O"
[reply] 2 ng, ml
